Would you mind telling me the reported pIC50 of each entry?
Target: human recombinant LRRK2 protein (Homo sapiens, UniProt Q5S007)
Sequence (Q5S007 whole entry): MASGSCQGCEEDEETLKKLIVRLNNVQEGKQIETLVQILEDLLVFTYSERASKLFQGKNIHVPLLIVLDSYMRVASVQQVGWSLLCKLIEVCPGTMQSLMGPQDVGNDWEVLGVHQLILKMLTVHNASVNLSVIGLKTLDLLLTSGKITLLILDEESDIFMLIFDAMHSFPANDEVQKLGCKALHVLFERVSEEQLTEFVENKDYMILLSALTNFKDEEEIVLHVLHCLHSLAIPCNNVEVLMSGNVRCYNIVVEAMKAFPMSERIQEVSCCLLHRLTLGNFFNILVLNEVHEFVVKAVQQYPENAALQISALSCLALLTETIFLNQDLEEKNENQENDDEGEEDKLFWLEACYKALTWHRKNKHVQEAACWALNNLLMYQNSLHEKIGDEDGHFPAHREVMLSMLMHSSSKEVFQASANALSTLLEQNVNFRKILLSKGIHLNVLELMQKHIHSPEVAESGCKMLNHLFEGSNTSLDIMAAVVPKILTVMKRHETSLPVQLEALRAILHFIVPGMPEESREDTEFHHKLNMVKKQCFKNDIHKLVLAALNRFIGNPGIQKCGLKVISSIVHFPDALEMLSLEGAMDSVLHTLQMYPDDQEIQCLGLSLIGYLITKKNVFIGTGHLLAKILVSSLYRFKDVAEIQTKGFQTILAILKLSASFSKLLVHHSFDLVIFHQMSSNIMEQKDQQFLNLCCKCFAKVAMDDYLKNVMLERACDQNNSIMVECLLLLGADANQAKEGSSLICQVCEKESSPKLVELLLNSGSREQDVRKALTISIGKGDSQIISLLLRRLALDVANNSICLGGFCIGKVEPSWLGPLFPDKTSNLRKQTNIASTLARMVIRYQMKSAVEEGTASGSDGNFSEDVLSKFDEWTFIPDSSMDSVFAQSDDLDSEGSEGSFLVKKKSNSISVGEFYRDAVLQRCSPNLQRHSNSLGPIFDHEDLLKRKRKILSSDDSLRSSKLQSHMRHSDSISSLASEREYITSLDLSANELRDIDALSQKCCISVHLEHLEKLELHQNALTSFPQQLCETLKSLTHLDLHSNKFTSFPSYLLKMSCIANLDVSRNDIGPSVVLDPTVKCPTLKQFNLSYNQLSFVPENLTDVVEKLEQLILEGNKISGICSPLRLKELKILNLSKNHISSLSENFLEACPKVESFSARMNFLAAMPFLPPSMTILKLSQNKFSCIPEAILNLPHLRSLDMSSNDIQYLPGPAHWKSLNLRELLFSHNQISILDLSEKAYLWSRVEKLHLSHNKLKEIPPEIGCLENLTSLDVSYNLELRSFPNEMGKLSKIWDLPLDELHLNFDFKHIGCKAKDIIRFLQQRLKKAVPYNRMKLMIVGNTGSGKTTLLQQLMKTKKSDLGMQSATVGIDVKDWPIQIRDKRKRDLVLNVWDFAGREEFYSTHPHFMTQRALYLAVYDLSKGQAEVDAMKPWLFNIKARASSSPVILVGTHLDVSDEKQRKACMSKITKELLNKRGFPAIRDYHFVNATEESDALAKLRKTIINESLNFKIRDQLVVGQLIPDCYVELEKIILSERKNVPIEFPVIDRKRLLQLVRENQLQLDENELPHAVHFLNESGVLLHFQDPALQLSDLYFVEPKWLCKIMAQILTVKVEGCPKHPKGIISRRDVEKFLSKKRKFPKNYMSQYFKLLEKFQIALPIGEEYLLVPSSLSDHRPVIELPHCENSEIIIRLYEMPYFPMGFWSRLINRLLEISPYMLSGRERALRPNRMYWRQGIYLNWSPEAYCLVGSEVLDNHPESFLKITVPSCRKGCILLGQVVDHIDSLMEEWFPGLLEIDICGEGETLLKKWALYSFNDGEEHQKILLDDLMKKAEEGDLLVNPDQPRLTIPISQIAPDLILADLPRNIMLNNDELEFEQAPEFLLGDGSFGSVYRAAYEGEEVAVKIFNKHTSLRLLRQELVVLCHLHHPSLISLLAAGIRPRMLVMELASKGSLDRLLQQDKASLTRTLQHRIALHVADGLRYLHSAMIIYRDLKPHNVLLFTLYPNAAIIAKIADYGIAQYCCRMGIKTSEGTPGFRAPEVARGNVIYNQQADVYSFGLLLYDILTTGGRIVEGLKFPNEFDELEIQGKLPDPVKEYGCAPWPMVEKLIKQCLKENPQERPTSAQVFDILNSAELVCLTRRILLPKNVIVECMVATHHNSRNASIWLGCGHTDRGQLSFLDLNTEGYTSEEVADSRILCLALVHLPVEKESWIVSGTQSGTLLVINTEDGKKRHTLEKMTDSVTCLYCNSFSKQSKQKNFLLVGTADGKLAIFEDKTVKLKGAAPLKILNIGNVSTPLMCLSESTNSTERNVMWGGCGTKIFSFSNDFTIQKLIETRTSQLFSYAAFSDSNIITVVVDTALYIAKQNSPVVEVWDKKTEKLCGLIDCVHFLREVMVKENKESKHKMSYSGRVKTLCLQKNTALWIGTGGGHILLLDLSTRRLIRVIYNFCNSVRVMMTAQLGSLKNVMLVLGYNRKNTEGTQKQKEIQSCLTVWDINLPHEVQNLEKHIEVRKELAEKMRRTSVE
Test: LRRK2 kinase activity assay (ADP-Glo, LRRKtide peptide)
Conditions: human recombinant LRRK2 wt, LRRKtide peptide and ATP, 1 h at 37° C.
pIC50: −log10 of the molar value.

{"Molecule": "c1cc2[nH]nc3c2cc1OCCOCCCOCc1ncc-3s1 [Example 84]", "Readout": "pIC50", "Result value": "> 8.00"}
{"Molecule": "C[C@@H]1CCOCC(F)(F)Cn2cc(cn2)-c2n[nH]c3ccc(cc23)O1 [Example 120]", "Readout": "pIC50", "Result value": "> 8.00"}

// next item, pIC50 requested
Form field: pIC50 recorded for FC1(F)COCCOCCn2cc(cn2)-c2n[nH]c3ccc(cc23)O1 [Example 78] with human recombinant LRRK2 protein (Homo sapiens, UniProt Q5S007) (enter value)
> 8.00

----------
Biological target: human recombinant LRRK2 protein (Homo sapiens, UniProt Q5S007)
Test: LRRK2 kinase activity assay (ADP-Glo, LRRKtide peptide)
Details: human recombinant LRRK2 wt, LRRKtide peptide and ATP, 1 h at 37° C.
Readout: IC50

These solved cases illustrate the format of a correct answer.
{"Mol smiles": "O=C1CCc2cc(F)cc(c2)-c2n[nH]c3ccc(cc23)OCCCN1", "IC50": "< 0.01 µM"}
{"Mol smiles": "C[C@@H]1CCOCCCn2ncc(n2)-c2n[nH]c3ccc(cc23)O1", "IC50": "< 0.01 µM"}

Form field: IC50 recorded for C[C@H]1COCCOCCOc2ccc3[nH]nc(c3c2)-c2cnn1c2 with human recombinant LRRK2 protein (Homo sapiens, UniProt Q5S007) (enter value)
< 0.01 µM

----------
Target: human recombinant LRRK2 protein (Homo sapiens, UniProt Q5S007)
Test: LRRK2 kinase activity assay (ADP-Glo, LRRKtide peptide)
Settings: human recombinant LRRK2 wt, LRRKtide peptide and ATP, 1 h at 37° C.
Where a name gives a salt, the structure may show the parent alone.
Would you mind telling me the reported IC50 of each entry?

These solved cases illustrate the format of a correct answer.
{"Molecule": "C[C@@H]1C[C@@H](C)n2cc(cn2)-c2n[nH]c3ccc(cc23)OCCCO1", "Readout": "IC50", "Result value": "< 100 nM"}
{"Molecule": "C[C@@H]1COCCO[C@@H](C)c2cncc(c2)-c2n[nH]c3ccc(cc23)O1 [Example 14, hydrochloride]", "Readout": "IC50", "Result value": "< 100 nM"}
{"Molecule": "C[C@@H]1OCCOC[C@H](C)Oc2ccc3[nH]nc(c3c2)-c2cncc1c2", "Readout": "IC50", "Result value": "< 100 nM"}
{"Molecule": "C[C@@H]1COc2cncc(n2)-c2n[nH]c3ccc(cc23)O[C@@H](C)CCO1", "Readout": "IC50", "Result value": "< 100 nM"}
{"Molecule": "C[C@@H]1CCOCC[C@H](C)Oc2ccc3[nH]nc(c3c2)-c2cnn1c2", "Readout": "IC50", "Result value": "< 100 nM"}

Quick one: give me IC50 for each item below, same order please.
1. C[C@@H]1CCOCCOCCn2ncc(n2)-c2n[nH]c3ccc(cc23)O1
2. C[C@H]1CCOCCCn2cnc(c2)-c2n[nH]c3ccc(cc23)O1

< 100 nM
< 1000 nM

Quick one: give me IC50 for each item below, same order please.
1. C[C@@H]1Oc2ccc3[nH]nc(c3c2)-c2cnn(c2)CCOCCO[C@@H]1C
2. O=C1COc2cc(cc(C(F)(F)F)c2)-c2n[nH]c3ccc(cc23)OCCCN1
3. O=C1COCCn2ncc(n2)-c2n[nH]c3ccc(cc23)OCCN1
4. C[C@@H]1CCOCCOc2cncc(n2)-c2n[nH]c3ccc(cc23)O1

< 100 nM
< 10 nM
< 1000 nM
< 10 nM

----------
Would you mind telling me the reported IC50 of each entry?
Target: human recombinant LRRK2 protein (Homo sapiens)
Assay: LRRK2 kinase activity assay (ADP-Glo, LRRKtide peptide)
Settings: human recombinant LRRK2 wt, LRRKtide peptide and ATP, 1 h at 37° C.

{"Compound": "C[C@H]1COCCOCCn2cc(cn2)-c2n[nH]c3ccc(cc23)O1", "Readout": "IC50", "Result value": "< 10 nM"}
{"Compound": "C[C@H]1CCNC(=O)COc2cc(cc(N3CCOCC3)c2)-c2n[nH]c3ccc(cc23)O1", "Readout": "IC50", "Result value": "< 10 nM"}
{"Compound": "C[C@H]1CCOCCOc2nccc(n2)-c2n[nH]c3ccc(cc23)O1", "Readout": "IC50", "Result value": "< 10 nM"}
{"Compound": "c1cc2[nH]nc3c2cc1OCCCNCC1(CC1)Oc1cncc-3c1", "Readout": "IC50", "Result value": "< 10 nM"}
{"Compound": "O=C1COc2cncc(c2)-c2n[nH]c3ccc(cc23)OCCN1", "Readout": "IC50", "Result value": "< 100 nM"}
{"Compound": "CN1CCCOc2ccc3[nH]nc(c3c2)-c2cc(cnc2F)OCC1=O", "Readout": "IC50", "Result value": "< 1000 nM"}

Quick one: give me IC50 for each item below, same order please.
1. COC1CN(c2cc3nc(n2)OCCOCC[C@H](C)Nc2ccc4[nH]nc-3c4c2)C1
2. c1nn2cc1-c1n[nH]c3ccc(nc13)OCCOCCOCC2
3. CC1CCNCCOc2cncc(c2)-c2n[nH]c3ccc(cc23)O1 (centres unmarked)
4. O=C1COc2cccc(c2)-c2n[nH]c3ccc(cc23)OCCCN1
5. c1cc2[nH]nc3c2cc1OCCCOCCCn1ncc-3n1
6. c1cc2[nH]nc3c2cc1OCCCOCCCn1cc-3cn1

1: < 10 nM; 2: < 100 nM; 3: < 10 nM; 4: < 100 nM; 5: < 10 nM; 6: < 10 nM

Quick one: give me IC50 for each item below, same order please.
1. C[C@@H]1COc2ccc3[nH]nc(c3c2)-c2cccc(c2)OCCN[C@@H]1C
2. C[C@@H]1COCCOCCn2cc(cn2)-c2n[nH]c3c(F)cc(cc23)O1

< 10 nM
< 10 nM

----------
Biological target: human recombinant LRRK2 protein (Homo sapiens)
Test: LRRK2 kinase activity assay (ADP-Glo, LRRKtide peptide)
Conditions: human recombinant LRRK2 wt, LRRKtide peptide and ATP, 1 h at 37° C.
Method: The inhibition of LRRK2 kinase was assessed using human recombinant LRRK2 protein in an in vitro peptide-based kinase assay. LRRK2 Kinase reactions were carried out in 384-well white polystyrene plates in a final volume of 6 μl using ADP-Glo™ Kinase Assay kit (Promega Corp.). […] A final 30-minutes incubation after 12 μL reagent-2 addition (ADP to ATP conversion and luciferin/luciferase reaction) was performed before luminescent signal acquisition (EnVision™ multimode plate reader—PerkinElmer, Inc.). […]
pIC50: −log10 of the molar value.
Readout: pIC50

{"Mol smiles": "C[C@@H]1COCCCCn2ncc(n2)-c2n[nH]c3ccc(cc23)O1", "pIC50": "> 7.00"}
{"Mol smiles": "C[C@@H]1COc2ccc3[nH]nc(c3c2)-c2cccc(c2)OCC(=O)N[C@H]1C", "pIC50": "> 7.00"}
{"Mol smiles": "C[C@H]1COCCOCCn2cc(cc2C#N)-c2n[nH]c3ccc(cc23)O1", "pIC50": "> 8.00"}

Quick one: give me pIC50 for each item below, same order please.
1. O=C1NCCCOc2ccc3[nH]nc(c3c2)-c2cccc(c2)[C@H]2C[C@H]12
2. C[C@@H]1CCOCC(F)(F)COc2ccc3[nH]nc(c3c2)-c2cnn1c2

> 7.00
> 7.00

----------
Target: human recombinant LRRK2 protein (Homo sapiens)
Assay: LRRK2 kinase activity assay (ADP-Glo, LRRKtide peptide)
Conditions: human recombinant LRRK2 wt, LRRKtide peptide and ATP, 1 h at 37° C.
Would you mind telling me the reported IC50 of each entry?

These solved cases illustrate the format of a correct answer.
{"Compound": "FC1(F)COCCCn2cc(cn2)-c2n[nH]c3ccc(cc23)OC1 [Example 111]", "Readout": "IC50", "Result value": "< 100 nM"}
{"Compound": "C[C@H]1COCCOc2ccc3[nH]nc(c3c2)-c2cnn(c2)CCO1 [Example 61]", "Readout": "IC50", "Result value": "< 100 nM"}

// next item, IC50 requested
Quick check: IC50 of C[C@@H]1CCOC[C@@H](C)Oc2ccc3[nH]nc(c3c2)-c2cncc(c2)O1 [Example 17] ?
< 10 nM
